# testedSystem: Cytochrome P450 2C9 (Homo sapiens, UniProt P11712)
# Sequence (P11712 whole entry): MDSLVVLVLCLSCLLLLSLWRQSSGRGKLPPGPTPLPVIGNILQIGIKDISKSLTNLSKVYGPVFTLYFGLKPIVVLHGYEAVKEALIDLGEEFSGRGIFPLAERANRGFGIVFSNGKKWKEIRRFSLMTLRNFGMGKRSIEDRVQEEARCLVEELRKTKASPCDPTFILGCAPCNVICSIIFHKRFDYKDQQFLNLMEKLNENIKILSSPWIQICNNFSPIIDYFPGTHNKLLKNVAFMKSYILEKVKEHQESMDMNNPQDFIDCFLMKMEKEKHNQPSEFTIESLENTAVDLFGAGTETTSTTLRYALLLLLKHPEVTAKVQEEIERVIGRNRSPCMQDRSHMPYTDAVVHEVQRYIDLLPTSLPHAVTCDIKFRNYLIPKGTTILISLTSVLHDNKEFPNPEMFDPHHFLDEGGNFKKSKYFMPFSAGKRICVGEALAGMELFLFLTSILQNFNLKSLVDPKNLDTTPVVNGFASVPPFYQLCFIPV
# experiment: Inhibition of CYP2C9 (unknown origin)
# Assay type: ADME
readoutKind: INH (µM)

> print(dat)
                     compoundstructurestring  inequalitysymbol  recordedresult
 1  C[C@H](NS(=O)(=O)c1ccc(-c2sc(C(=O)NCC(C)(C)O)nc2CC2CC2)c2ccccc12)C(F)(F)F                 =             0.4
 2  CC(C)(C)NS(=O)(=O)c1ccc(-c2sc(C(=O)N[C@H]3C[C@H](C(=O)O)C3)nc2CC2CCCCC2)c2ccccc12                 =             9.9
 3  CC(C)(C)NS(=O)(=O)c1ccc(-c2sc(C(=O)N[C@H]3C[C@H](C(=O)O)C3)nc2CC2CCCCC2)c(Cl)c1                 >              10
 4  C[C@H](NS(=O)(=O)c1ccc(-c2sc(C(=O)NC3CCS(=O)(=O)CC3)nc2CC2CC2)c2ccccc12)C(F)(F)F                 =             2.9
 5  C[C@H](NC(=O)c1cc(-c2sc(C(=O)N[C@H]3C[C@H](C(=O)O)C3)nc2CC2CCCCC2)cc(C2(C)CC2)c1)C(F)(F)F                 >              10
 6  CC(C)(O)CNC(=O)c1nc(CC2CCCCC2)c(-c2ccc(S(=O)(=O)NC(C)(C)C)c(Cl)c2C(F)F)s1                 =             0.4
 7  CC(C)(C)NS(=O)(=O)c1ncc(-c2sc(C(=O)N[C@H]3C[C@H](C(=O)O)C3)nc2CC2CCCCC2)c2ccccc12                 >              10
 8  CC(C)NS(=O)(=O)c1ccc(-c2sc(C(=O)N[C@H]3C[C@H](C(=O)O)C3)nc2CC2CCCCC2)c(C(F)F)c1Cl                 =             7.6
 9  CC(C)(C)NS(=O)(=O)c1ccc(-c2sc(C(=O)NCCN3CCOCC3)nc2CC2CCCCC2)c2ccccc12                 =             0.4
10  CC(C)(C)NS(=O)(=O)c1ccc(-c2sc(C(=O)N[C@H]3C[C@H](C(=O)O)C3)nc2CC2CCCCC2)c2c1CCCC2                 >              10
11  CCC(C)(C)NS(=O)(=O)c1ccc(-c2sc(C(=O)N[C@H]3C[C@H](C(=O)O)C3)nc2CC2CCCCC2)c(Cl)c1C                 =             3.2
